- targetDesc: Protein kinase C beta type (Homo sapiens) (UniProt P05771)
- Sequence (P05771 2-671 limits assumed): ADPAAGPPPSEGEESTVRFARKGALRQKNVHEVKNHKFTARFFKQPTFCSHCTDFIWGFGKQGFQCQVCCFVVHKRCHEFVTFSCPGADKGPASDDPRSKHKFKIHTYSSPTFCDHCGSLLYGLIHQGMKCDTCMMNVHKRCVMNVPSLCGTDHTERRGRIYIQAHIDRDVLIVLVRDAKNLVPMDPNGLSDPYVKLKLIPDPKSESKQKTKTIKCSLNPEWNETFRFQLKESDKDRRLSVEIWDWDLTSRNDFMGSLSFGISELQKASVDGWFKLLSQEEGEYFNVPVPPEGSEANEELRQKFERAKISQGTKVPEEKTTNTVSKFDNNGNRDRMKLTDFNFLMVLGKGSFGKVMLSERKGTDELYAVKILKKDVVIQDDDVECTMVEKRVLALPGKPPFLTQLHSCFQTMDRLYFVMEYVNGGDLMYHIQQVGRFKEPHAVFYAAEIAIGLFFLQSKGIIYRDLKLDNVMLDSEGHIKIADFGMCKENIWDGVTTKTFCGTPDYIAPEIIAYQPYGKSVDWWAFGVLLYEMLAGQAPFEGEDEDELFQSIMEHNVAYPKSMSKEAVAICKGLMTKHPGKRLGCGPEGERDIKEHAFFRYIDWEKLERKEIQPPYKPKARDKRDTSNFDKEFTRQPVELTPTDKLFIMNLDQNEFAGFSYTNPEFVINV
- experiment: Inhibition of PRKCbeta1 (unknown origin) at 10 uM relative to control
reportedProperty: inhibition (%)

• CC(C)Nc1c(C(N)=O)nnc2ccc(-c3cn[nH]c3)cc12 = 40
• C[C@@H](Nc1c(C(N)=O)nnc2cc(-c3ccc(S(C)(=O)=O)cc3)ccc12)C1CC1 = 0

I = CC(C)Nc1c(C(N)=O)nnc2cc(N3CCOCC3)ccc12
II = CC(C)Nc1c(C(N)=O)nnc2ccc(-c3ccncc3)cc12
III = CC(C)Nc1c(C(N)=O)cnc2cc(-c3ccc(S(C)(=O)=O)cc3)ccc12
IV = CC(C)Nc1c(C(N)=O)nnc2cc(-c3ccncc3)ccc12
V = CS(=O)(=O)c1ccc(-c2ccc3c(NC4CCC4)c(C(N)=O)nnc3c2)cc1
Exercise: Ascending sort, inhibition. Dear reader, please state the labels in the requested order.
Key: V, I, III, IV, II
(V: -2%, I: 0%, III: 8%, IV: 15%, II: 43%)

* * *

- targetDesc: Insulin receptor (Homo sapiens)
- experiment: Inhibition of INSR (unknown origin) at 10 uM relative to control
reportedProperty: inhibition (%)

• C[C@@H](Nc1c(C(N)=O)nnc2cc(-c3ccc(S(C)(=O)=O)cc3)ccc12)C1CC1 = 0

P = CC(C)Nc1c(C(N)=O)nnc2ccc(-c3cn[nH]c3)cc12
Q = CC(C)Nc1c(C(N)=O)nnc2cc(N3CCOCC3)ccc12
Exercise: Please state the entry with greater inhibition among P and Q . Respond using the label that marks the chosen record.
Key: P
(P: 39%, Q: -1%)

a = CS(=O)(=O)c1ccc(-c2ccc3c(NC4CCC4)c(C(N)=O)nnc3c2)cc1
b = CC(C)Nc1c(C(N)=O)cnc2cc(-c3ccc(S(C)(=O)=O)cc3)ccc12
c = CC(C)Nc1c(C(N)=O)nnc2cc(-c3ccncc3)ccc12
d = CC(C)Nc1c(C(N)=O)nnc2ccc(-c3ccncc3)cc12
Exercise: Ascending sort, inhibition. Dear reader, please state the labels in the requested order.
Key: b, a, d, c

* * *

- targetDesc: Cyclin-dependent kinase 2/cyclin A (Homo sapiens) (UniProt P24941+P20248+P78396)
- experiment: Inhibition of CDK2/cyclin A (unknown origin) at 10 uM relative to control
- Assay type: protein-complex assay
reportedProperty: inhibition (%)

Previously resolved entries follow.
• CC(C)Nc1c(C(N)=O)nnc2cc(N3CCOCC3)ccc12 = 5
• CC(C)Nc1c(C(N)=O)nnc2ccc(-c3cn[nH]c3)cc12 = 101

a = CC(C)Nc1c(C(N)=O)nnc2ccc(-c3ccncc3)cc12
b = CC(C)Nc1c(C(N)=O)cnc2cc(-c3ccc(S(C)(=O)=O)cc3)ccc12
c = CC(C)Nc1c(C(N)=O)nnc2cc(-c3ccncc3)ccc12
d = CS(=O)(=O)c1ccc(-c2ccc3c(NC4CCC4)c(C(N)=O)nnc3c2)cc1
Exercise: Ascending sort, inhibition. Dear reader, please state the labels in the requested order.
Key: d, b, c, a

* * *

- targetDesc: Leucine-rich repeat serine/threonine-protein kinase 2 (Homo sapiens, UniProt Q5S007)
- Sequence (Q5S007 whole entry): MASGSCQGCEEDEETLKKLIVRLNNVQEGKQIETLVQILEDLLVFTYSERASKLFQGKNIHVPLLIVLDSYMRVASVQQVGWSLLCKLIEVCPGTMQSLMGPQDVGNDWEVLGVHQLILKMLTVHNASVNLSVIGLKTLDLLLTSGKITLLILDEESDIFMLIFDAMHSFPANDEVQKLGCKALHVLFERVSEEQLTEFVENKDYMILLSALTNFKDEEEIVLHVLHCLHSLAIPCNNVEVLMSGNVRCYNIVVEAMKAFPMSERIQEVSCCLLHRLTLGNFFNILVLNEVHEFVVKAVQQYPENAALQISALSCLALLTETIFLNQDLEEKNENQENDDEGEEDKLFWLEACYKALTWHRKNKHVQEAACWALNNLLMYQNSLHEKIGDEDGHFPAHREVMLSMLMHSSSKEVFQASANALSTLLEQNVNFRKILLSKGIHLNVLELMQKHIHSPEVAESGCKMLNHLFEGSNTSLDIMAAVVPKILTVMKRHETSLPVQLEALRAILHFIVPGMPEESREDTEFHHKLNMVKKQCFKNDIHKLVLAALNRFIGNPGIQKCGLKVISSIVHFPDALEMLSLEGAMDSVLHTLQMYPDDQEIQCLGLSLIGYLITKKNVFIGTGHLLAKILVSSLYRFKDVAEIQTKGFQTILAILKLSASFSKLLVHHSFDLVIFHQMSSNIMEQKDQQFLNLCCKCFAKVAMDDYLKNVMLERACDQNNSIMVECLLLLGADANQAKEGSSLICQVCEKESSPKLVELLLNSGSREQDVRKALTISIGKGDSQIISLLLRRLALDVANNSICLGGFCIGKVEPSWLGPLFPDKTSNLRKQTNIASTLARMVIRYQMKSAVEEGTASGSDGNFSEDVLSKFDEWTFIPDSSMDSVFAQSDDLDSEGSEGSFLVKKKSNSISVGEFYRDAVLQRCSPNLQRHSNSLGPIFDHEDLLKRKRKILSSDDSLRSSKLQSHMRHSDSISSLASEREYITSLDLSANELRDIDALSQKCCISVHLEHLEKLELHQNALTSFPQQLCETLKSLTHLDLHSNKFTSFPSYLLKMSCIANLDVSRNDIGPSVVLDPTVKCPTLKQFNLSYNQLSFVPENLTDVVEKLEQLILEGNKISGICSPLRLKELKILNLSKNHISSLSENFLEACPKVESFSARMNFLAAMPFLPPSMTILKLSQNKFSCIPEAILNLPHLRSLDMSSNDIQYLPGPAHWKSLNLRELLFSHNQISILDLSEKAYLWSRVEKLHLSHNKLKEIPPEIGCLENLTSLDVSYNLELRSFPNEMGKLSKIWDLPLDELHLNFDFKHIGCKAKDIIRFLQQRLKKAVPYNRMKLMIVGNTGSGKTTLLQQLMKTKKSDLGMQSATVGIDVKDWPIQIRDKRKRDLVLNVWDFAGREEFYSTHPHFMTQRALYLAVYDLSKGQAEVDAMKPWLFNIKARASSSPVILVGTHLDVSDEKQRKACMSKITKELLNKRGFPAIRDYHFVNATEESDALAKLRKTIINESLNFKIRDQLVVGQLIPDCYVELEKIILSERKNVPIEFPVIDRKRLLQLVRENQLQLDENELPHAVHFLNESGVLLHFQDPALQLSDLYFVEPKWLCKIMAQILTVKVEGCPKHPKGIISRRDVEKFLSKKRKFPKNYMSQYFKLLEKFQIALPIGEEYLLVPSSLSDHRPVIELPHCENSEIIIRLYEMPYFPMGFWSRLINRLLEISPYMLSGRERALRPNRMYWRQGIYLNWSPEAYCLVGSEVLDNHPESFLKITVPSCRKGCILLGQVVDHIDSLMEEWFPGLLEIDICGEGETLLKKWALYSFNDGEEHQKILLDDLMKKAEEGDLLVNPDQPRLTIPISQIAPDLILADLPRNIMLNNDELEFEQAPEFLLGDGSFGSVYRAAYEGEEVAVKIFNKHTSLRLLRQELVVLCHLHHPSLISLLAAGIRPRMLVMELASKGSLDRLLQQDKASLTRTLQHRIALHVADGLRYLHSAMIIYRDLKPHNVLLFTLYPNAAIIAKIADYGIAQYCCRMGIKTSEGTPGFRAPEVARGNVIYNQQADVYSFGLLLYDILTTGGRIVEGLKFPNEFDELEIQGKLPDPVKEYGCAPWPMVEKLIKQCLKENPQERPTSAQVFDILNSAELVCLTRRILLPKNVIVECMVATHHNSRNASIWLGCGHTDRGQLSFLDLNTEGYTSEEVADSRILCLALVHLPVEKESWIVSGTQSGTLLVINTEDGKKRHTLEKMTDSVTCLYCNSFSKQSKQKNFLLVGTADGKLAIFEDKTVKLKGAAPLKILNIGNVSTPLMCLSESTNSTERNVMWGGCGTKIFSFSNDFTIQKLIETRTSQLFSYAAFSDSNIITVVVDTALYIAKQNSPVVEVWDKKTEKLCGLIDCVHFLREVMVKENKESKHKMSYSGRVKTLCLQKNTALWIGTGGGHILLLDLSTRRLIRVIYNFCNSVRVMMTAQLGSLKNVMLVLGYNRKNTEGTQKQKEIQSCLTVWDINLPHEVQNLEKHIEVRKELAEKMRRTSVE
- experiment: Inhibition of LRRK2 (unknown origin) at 10 uM relative to control
reportedProperty: inhibition (%)

- CC(C)Nc1c(C(N)=O)nnc2ccc(-c3cn[nH]c3)cc12: 96
- CC(C)Nc1c(C(N)=O)nnc2cc(N3CCOCC3)ccc12: 99
- CS(=O)(=O)c1ccc(-c2ccc3c(NC4CCC4)c(C(N)=O)nnc3c2)cc1: 97
- CC(C)Nc1c(C(N)=O)cnc2cc(-c3ccc(S(C)(=O)=O)cc3)ccc12: 96
- CC(C)Nc1c(C(N)=O)nnc2ccc(-c3ccncc3)cc12: 95
- C[C@@H](Nc1c(C(N)=O)nnc2cc(-c3ccc(S(C)(=O)=O)cc3)ccc12)C1CC1: 97
